- targetEntity: T1, human ICOS (human, UniProt Q9Y6W8 21-199)
- T1 construct: The cell that carries it is named under assay; also called huICOS; CD278
- T1 sequence: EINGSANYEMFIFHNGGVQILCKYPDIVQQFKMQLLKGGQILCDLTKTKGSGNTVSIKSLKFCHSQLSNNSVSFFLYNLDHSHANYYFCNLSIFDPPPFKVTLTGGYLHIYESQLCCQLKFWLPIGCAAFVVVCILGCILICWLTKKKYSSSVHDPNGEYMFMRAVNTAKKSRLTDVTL
- testMethodNotes: flow cytometry on CHO cells stably expressing human ICOS, PE-labelled secondary antibody, median fluorescence intensity (MFI)
endpoint: EC50 (read off the curve)

Kindly note the recorded EC50 (read off the curve) for Molecule 18 (rbIgG of 1138) (antibody, V domains shown, Rabbit IgG format; also called ICOS (1138); clone 1138) VH: QSLEESGGDLVKPGASLTLTCTASGFDLSSYYYMCWVRQAPGKGLEWIACIYADIYGGTTHYASWAKGRFTISKTSSTTVTLQMTSLTAADTATYFCAREDGSRYGGSGYYNLWGPGTLVTVSS VL: ALVMTQTPSSVSAAVGGTVTINCQASQNIYSNLAWYQQKPGQPPKLLIYAASYLTSGVSSRFKGSGAGTQFTLTISGVECADAATYYCQQGHTTDNIDNAFGGGTEVVVKG , which is ~2 nM

Value source: patent US20220098305A1
